Reported values of Cell Viability for individual entries
Test system: B cell
METHOD_NOTES: Cytotoxicity screening of chemical probes in isolated B cell assay. Data is normalized to DMSO control, the cell viability average of replicates are reported. Reduction of ATP level more than 20% indicate compromised cell health status.
REPORTED_CONDITIONS: human, 1 µM
MEASURED_QUANTITY: Cell Viability (%)

- Cc1ccc(Cn2nc(C(=O)N[C@@H]3C(C)(C)[C@@H]4CC[C@@]3(C)C4)cc2-c2ccc(Cl)c(C)c2)cc1: 98.0011
- C[C@H](CO)Nc1nc(SCc2cccc(Cl)c2F)nc2[nH]c(=O)sc12: 95.8941
- Cc1c(C(=O)NN2CCCCC2)nn(-c2ccc(Cl)cc2Cl)c1-c1ccc(Cl)cc1 [RIMONABANT]: 98.0011
- Cc1[nH]cnc1CN1CCc2c(c3ccccc3n2C)C1=O [ALOSETRON]: 98.0011
- O=S(=O)(c1ccccc1)c1cnc2c(N3CCNCC3)cccc2c1 [INTEPIRDINE]: 98.0011
